Consider the following compounds; for each one, report its ΔTm: difference in melting point of LdtMt2 relative to unreacted LdtMt2 (43.8 °C).
biological target: LdtMt2 (Mycobacterium tuberculosis, UniProt I6Y9J2); experiment: biochemical; type: binding; parameters: made in house; host or cells: E. coli
Sequence (I6Y9J2 56-408): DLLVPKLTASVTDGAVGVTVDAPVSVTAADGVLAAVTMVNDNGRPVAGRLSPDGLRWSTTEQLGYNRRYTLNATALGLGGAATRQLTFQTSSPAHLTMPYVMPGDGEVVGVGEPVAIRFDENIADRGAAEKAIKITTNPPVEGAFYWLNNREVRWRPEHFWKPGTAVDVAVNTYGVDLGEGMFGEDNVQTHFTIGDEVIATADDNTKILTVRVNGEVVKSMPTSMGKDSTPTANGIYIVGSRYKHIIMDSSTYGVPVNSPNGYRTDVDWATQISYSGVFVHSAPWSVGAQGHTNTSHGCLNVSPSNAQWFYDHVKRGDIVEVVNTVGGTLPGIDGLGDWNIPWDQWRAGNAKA

Sample answers from the record:
> print(dat)
                                molecule  endpoint.value
1      O=C1CN(C(=O)C=Cc2ccco2)c2ccccc2N1            +0.3
2  O=C1C=CC(=O)N1c1ccc(Oc2ccccc2)c(Cl)c1         -0.2 °C

The following compounds each have a reported value; give each one's ΔTm: difference in melting point of LdtMt2 relative to unreacted LdtMt2 (43.8 °C).
1. O=C1C(=O)N(Cc2cccc3ccccc23)c2ccc(Br)cc21
2. CC(C)(C)OC(=O)Nc1ccc(N2C(=O)C=CC2=O)cc1
3. Cc1ccccc1NC(=O)C=CC(N)=O

Resp:
+2.4
+1.7 °C
+1.1

* * *

Consider the following compounds; for each one, report its LE (ligand efficiency).
molecular target: LdtMt2 (Mycobacterium tuberculosis); experiment: biochemical; type: biochemical; parameters: made in house; host or cells: E. coli
Give bare numbers.

> print(dat)
                                   compound                quantity  endpoint.value
1  N#CN1CCCN1C(=O)OCc1ccc(Cl)c(Cl)c1 [Compound 37]  LE (ligand efficiency)            0.59
2  O=C1CN(C(=O)C=Cc2ccco2)c2ccccc2N1 [Compound 12]  LE (ligand efficiency)            0.56
3  N#Cn1c(-c2ccc3nccnc3c2)nc2ccccc21 [Compound 26]  LE (ligand efficiency)            0.53
4  N#Cn1c(-c2cc(F)cc(C(F)(F)F)c2)nc2ccccc21 [Compound 23]  LE (ligand efficiency)            0.51
5  Cc1nc(-c2ccc(-c3nc4ccccc4n3C#N)cc2)cs1 [Compound 30]  LE (ligand efficiency)            0.49

# context switch: different compound, same LE (ligand efficiency)
LE (ligand efficiency) value, target or system LdtMt2 (Mycobacterium tuberculosis), for COc1ccc(COC(=O)C2N3C(=O)C(Br)C3S(=O)(=O)C2(C)C)cc1 (stereo not drawn) [Compound 21] : 0.45

* * *

Target: LdtMt2 (Mycobacterium tuberculosis)
Experiment: biochemical
Assay type: binding
Parameters: made in house; host or cells: E. coli
Details: pH 7.5; in °C (unit assumed)
Method: LdtMt2 (5 μM) was incubated with the inhibitor (500 μM) in assay buffer (50 mM tris pH 7.5) for 30 minutes at room temperature in 96-well white PCR plates (25 μL final volume, Starlab). […] Fluorescence was monitored (with λex = 492 nm and λem = 610 nm) using a CFX96 Touch Real-Time PCR Detection System (Bio-Rad), while the temperature was increased from 20 to 95 °C in increments of 0.2 °C. Melting temperatures (Tms) were determined using the CFX Maestro Software (Bio-Rad).
Consider the following compounds; for each one, report its Tm: melting point of LdtMt2 after pre-incubation with the compound.
Give bare numbers.

Sample answers from the record:
> print(dat)
                                molecule                    target.under.test  endpoint.value
1  N#Cn1c(-c2ccc(-c3nccs3)cc2)nc2ccccc21  LdtMt2 (Mycobacterium tuberculosis)            42.9
2      O=C1CN(C(=O)C=Cc2ccco2)c2ccccc2N1  LdtMt2 (Mycobacterium tuberculosis)            44.1

# context switch: different compound, same Tm: melting point of LdtMt2 after pre-incubation with the compound
Tm: melting point of LdtMt2 after pre-incubation with the compound value, target or system LdtMt2 (Mycobacterium tuberculosis), for N#Cn1c(-c2ccncc2)nc2ccc(-c3ccncc3)cc21 : 42.1

Source of measurements: paper PMC10321483
